system: OVCAR-3; assay: Cytotoxicity against human OVCAR3 cells assessed as cell growth at 10 uM after 48 hrs relative to control; assay type: functional; conditions: OVCAR-3, 48 h, read-out: Activity
Binary label based on growth at 10 µM with cut-off -40%: below gives 1, not below gives -1.

>  <STRUCTURE_STRING>
COC(=O)[C@@H](NC(=O)N[C@@H](Cc1ccccc1)C(=O)N[C@H]1CCCCNC(=O)/C=C/[C@H](Cc2c[nH]c3ccccc23)NC1=O)C(C)C

>  <ASSAY_TARGET>
OVCAR-3

>  <CLASS_LABEL>
-1

$$$$
>  <STRUCTURE_STRING>
COC(=O)[C@@H](NC(=O)N[C@H](C(=O)N[C@H]1CCCCNC(=O)/C=C/[C@H](Cc2c[nH]c3ccccc23)NC1=O)C(C)C)C(C)C

>  <ASSAY_TARGET>
OVCAR-3

>  <CLASS_LABEL>
1

$$$$
>  <STRUCTURE_STRING>
COC(=O)[C@@H](NC(=O)N[C@@H](Cc1ccccc1)C(=O)N[C@H]1CCCCNC(=O)/C=C/[C@H](C(C)C)NC1=O)C(C)C

>  <ASSAY_TARGET>
OVCAR-3

>  <CLASS_LABEL>
-1

$$$$
>  <STRUCTURE_STRING>
COC(=O)[C@@H](NC(=O)N[C@@H](Cc1ccccc1)C(=O)N[C@H]1CCCCNC(=O)/C=C/[C@H](Cc2ccccc2)NC1=O)C(C)C

>  <ASSAY_TARGET>
OVCAR-3

>  <CLASS_LABEL>
-1

$$$$
